- target_system: DDR1 (Homo sapiens, UniProt Q08345)
- Sequence (Q08345 19-913): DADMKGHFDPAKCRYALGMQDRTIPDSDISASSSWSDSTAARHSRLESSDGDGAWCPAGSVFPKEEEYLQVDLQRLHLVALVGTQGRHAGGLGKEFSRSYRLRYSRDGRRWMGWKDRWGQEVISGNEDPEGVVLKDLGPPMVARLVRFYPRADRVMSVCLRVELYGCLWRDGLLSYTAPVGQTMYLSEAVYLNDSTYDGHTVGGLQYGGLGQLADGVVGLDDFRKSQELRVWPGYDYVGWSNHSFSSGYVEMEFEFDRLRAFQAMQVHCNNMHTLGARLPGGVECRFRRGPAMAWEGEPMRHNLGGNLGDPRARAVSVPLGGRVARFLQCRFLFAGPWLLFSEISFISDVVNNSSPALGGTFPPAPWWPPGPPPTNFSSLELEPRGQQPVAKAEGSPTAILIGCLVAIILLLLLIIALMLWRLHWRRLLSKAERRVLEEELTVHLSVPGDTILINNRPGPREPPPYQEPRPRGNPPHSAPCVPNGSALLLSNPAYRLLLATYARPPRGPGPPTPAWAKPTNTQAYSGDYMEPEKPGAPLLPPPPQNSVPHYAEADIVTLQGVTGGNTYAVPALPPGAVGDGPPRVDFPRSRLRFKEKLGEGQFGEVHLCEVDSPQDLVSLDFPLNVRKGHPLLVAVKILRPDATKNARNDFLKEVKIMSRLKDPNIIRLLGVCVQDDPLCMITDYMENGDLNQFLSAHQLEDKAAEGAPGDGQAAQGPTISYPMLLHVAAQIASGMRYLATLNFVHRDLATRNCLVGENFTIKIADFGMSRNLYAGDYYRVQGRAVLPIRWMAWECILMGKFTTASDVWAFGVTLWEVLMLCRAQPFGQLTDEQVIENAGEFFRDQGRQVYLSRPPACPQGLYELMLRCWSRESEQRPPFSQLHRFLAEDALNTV
- experiment: DDR1 in vitro kinase activity assay (LanthaScreen Eu-anti-GST antibody / Kinase Tracer 178)
- Format: binding
- details: compound 100 nM; read-out: DDR1 inhibition rate, 100 nM
metric_name: inhibition at 0.1 µM (%)
Hi! Could you send only the number? It should be in %, unit omitted.

Please review the following examples before continuing.
{"compound": "Cc1cc(NC(=O)c2cccc3c2CC[C@@H]3Oc2cncc(-c3cnn(C)c3)c2)cc(C)n1 [Compound 19k]", "target_system": "DDR1 (Homo sapiens, UniProt Q08345)", "unit_label": "%", "inhibition at 0.1 µM": 89.9}
{"compound": "Cn1cc(-c2cncc(O[C@H]3CCc4c(C(=O)Nc5cncc(Cl)c5)cccc43)c2)cn1 [Compound 19a]", "target_system": "DDR1 (Homo sapiens, UniProt Q08345)", "unit_label": "%", "inhibition at 0.1 µM": 102}
{"compound": "Cc1cncc(NC(=O)c2cccc3c2CC[C@@H]3Oc2cncc(-c3cnn(C)c3)c2)c1 [Compound 19j]", "target_system": "DDR1 (Homo sapiens, UniProt Q08345)", "unit_label": "%", "inhibition at 0.1 µM": 96.7}
{"compound": "Cn1ncc2ncc(O[C@H]3CCc4c(C(=O)Nc5cncc(Cl)c5)cccc43)cc21 [Compound 76ac]", "target_system": "DDR1 (Homo sapiens, UniProt Q08345)", "unit_label": "%", "inhibition at 0.1 µM": 103}
{"compound": "Cn1cc2ncc(N[C@H]3CCc4c(C(=O)Nc5nc(C6CC6)cs5)cccc43)cc2n1 [Compound 74h]", "target_system": "DDR1 (Homo sapiens, UniProt Q08345)", "unit_label": "%", "inhibition at 0.1 µM": 99.9}
{"compound": "Cn1cc(-c2cncc(N[C@H]3CCc4c(Nc5noc(C(C)(C)C)n5)cccc43)c2)cn1 [Compound 42o]", "target_system": "DDR1 (Homo sapiens, UniProt Q08345)", "unit_label": "%", "inhibition at 0.1 µM": 67.6}

input: Entry Cn1cc2ncc(O[C@H]3CCc4c(C(=O)Nc5cncc(Cl)c5)cccc43)cc2n1 [Compound 76ai] : reported inhibition at 0.1 µM = ?
output: 99.6

input: Now the same for Cc1cccc(C(=O)Nc2cccc3c2CC[C@@H]3Oc2cncc(-c3cnn(C)c3)c2)c1
output: 88

---

- target_system: PDGFR-α (Homo sapiens)
- Sequence (P16234 24-1089): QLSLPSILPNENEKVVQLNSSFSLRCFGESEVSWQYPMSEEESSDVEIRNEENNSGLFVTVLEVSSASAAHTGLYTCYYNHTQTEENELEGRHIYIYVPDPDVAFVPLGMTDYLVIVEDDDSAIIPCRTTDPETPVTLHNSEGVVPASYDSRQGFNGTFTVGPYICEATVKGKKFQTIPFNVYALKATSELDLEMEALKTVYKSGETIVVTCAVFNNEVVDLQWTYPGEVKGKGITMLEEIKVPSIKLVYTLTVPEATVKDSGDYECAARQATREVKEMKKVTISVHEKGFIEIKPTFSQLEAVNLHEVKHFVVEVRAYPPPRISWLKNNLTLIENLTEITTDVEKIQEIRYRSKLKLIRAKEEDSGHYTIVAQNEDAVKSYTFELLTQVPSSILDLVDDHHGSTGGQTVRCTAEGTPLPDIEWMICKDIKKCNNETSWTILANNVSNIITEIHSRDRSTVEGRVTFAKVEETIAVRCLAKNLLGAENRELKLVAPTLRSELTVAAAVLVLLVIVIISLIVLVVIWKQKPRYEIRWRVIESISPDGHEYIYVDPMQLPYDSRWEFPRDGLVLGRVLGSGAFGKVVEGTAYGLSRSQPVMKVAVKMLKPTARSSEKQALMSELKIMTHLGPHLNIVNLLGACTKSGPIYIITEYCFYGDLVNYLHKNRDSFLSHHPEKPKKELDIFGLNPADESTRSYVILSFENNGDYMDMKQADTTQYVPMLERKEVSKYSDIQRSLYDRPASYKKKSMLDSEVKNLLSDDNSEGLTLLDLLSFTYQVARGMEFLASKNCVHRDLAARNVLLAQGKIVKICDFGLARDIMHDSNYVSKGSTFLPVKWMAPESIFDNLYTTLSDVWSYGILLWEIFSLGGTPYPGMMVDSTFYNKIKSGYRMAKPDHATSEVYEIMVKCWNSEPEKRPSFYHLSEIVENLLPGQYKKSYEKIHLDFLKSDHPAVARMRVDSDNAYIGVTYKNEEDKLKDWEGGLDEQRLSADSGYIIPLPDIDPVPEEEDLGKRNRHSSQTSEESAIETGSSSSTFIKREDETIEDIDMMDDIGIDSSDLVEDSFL
- experiment: PDGFR-α in vitro kinase activity assay (HTRF kinEASE TK)
- Assay type: biochemical
- details: compound 10 nM; read-out: PDGFRα inhibition rate, 10 nM
Reported inhibition at 0.01 µM values are given for each entry in this list.
Hi! Could you send only the number? It should be in %, unit omitted.

Please review the following examples before continuing.
{"compound": "Cn1cc(-c2cncc(N[C@H]3CCc4c(Nc5cc(C(C)(C)C)on5)cccc43)c2)cn1", "inhibition at 0.01 µM, %": 55.5}
{"compound": "Cn1cc(-c2cncc(N[C@H]3CCc4c(C(=O)Nc5ccc(C(F)(F)F)nc5)cccc43)c2)cn1 [Compound 14ah]", "inhibition at 0.01 µM, %": 67.6}
{"compound": "Cc1cccc(NC(=O)c2cccc3c2CC[C@@H]3Oc2cnc3cn(C)nc3c2)n1 [Compound 76bd]", "inhibition at 0.01 µM, %": 32}

Switching to the query record.
input: Entry Cc1cccc(C(=O)Nc2cccc3c2CC[C@@H]3Oc2cncc(-c3cnn(C)c3)c2)c1 : reported inhibition at 0.01 µM = ?
output: 39.6

Cited source for all entries: patent US20260125359A1
